For each of the variants below, state its protein stability index.
B1: HSP90AB1 (parent)
chain: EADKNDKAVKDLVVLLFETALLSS

Variants of: B1
Experiment: protein stability index of a GFP-peptide fusion (GPS, HEK-293T) (PSI 1-6); higher = more stable;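 further: lentivirally expressed fusions sorted by FACS into six bins by GFP to DsRed ratio, PSI derived from sequencing read proportions per bin multiplied by bin number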
Conditions: c terminus: a fixed tail appended

Q: Query: protein stability index; subject: N5K
A: 2.35

Q: Cool, now V9K
A: 2.15

Q: Same question, F17S this time
A: 3.89

Q: Lookup N5E
A: 2.06

Q: Also, D3K please.
A: 1.58

Q: Lookup D11S
A: 1.99

Q: Another variant to check: A2G
A: 1.33

Q: And then V14D , what is it?
A: 3.03

Q: Similarly, A20N ?
A: 2.16

Q: Also L16A , if possible.
A: 3.56

Q: Continue with A8N
A: 2.2

Q: What do you get for N5G ?
A: 1.67

Q: Likewise for V13Y ?
A: 2.33

Q: Okay, and A20V ?
A: 1.88

Q: Field entry: N5L
A: 1.99

Q: Next up: D11G
A: 2.68

Q: What would you report for S23V ?
A: 2.41

Q: Try K4F next.
A: 2.21

Q: Follow-up item: A8I
A: 1.55

Q: Ok, now T19Y
A: 2.02

Q: Also L21V ?
A: 1.94

Q: Could you do the same for L15N , please?
A: 3.62

Q: Again, but for F17T
A: 3.67

Q: Again, but for K4V
A: 1.85

Q: Consider next the variant E18F in the same way.
A: 3.16

Q: Entry to check: F17W
A: 2.26

Q: Next: A20M
A: 1.97

Q: Now try E18A .
A: 2.2

Q: Now this one: L16F
A: 1.69

Q: Let us now turn to A8H
A: 2.62

Q: Similarly, S23L ?
A: 3.33

Q: Please give the result for L22F too.
A: 1.8

Q: Next up: A8M
A: 2.62

Q: Input D3M
A: 1.25

Q: Now try D11E .
A: 1.98

Q: Another: A2V
A: 2.1

Q: Another variant to check: V14L
A: 1.72

Q: What do you have for F17D ?
A: 4.65

Q: Queued: D6I
A: 3.48

Q: Next variant up: T19W
A: 2.52

Q: Another: V14S
A: 2.17

Q: Param item: V13H
A: 2.58

Q: Another variant: E18W
A: 2.79

Q: Next variant up: S24V
A: 2.29

Q: Same lookup for D3N , please.
A: 2.13

Q: Next up: E1G
A: 2.37

Q: Also A20R , if possible.
A: 2.42

Q: Request: D3Y
A: 2.46

Q: Next record, please: F17V
A: 1.92

Q: Note, next up: K10T
A: 2.26

Q: What about S24F ?
A: 2.11

Q: Cool, now K4T
A: 2.06

Q: And the next one, E1D ?
A: 1.86

Q: Now this one: V14P
A: 3.93

Q: How about this variant: A20F
A: 2.42

Q: Query S24N next
A: 2.13

Q: What do you get for A8F ?
A: 2.18

Q: Then E18L ?
A: 2.61

Q: Then what about the variant K10P ?
A: 1.49

Q: Now consider K4E .
A: 2.2

Q: Same lookup for E1I , please.
A: 2.56

Q: Moving on to the next variant: F17C
A: 2.59

Q: Please do the same for S23T as well.
A: 2.15

Q: Lookup S23H
A: 2.26

Q: Entry V13K please
A: 3.37

Q: Same again, this time with E1C
A: 1.88

Q: Note, next up: V9T
A: 2.49

Q: Request: E1P
A: 1.95

Q: How about this variant: E18D
A: 1.33

Q: Let us now turn to F17P
A: 4.3

Q: Quick one: T19L
A: 1.98

Q: Would you kindly repeat that for D3E ?
A: 1.65

Q: Also check L16R
A: 3.37

Q: Then this variant: D11K
A: 2.15

Q: What about this variant? K10A
A: 1.82

Q: Then what about the variant L22N ?
A: 2.68

Q: Item: L16G
A: 4.18

Q: Moving on to L21R
A: 2.11

Q: Same lookup for V9M , please.
A: 1.8

Q: Would you kindly repeat that for V14I ?
A: 2.04

Q: Cool, now E18H
A: 2.07

Q: Also F17H ?
A: 3.13

Q: Queued: S24I
A: 1.51

Q: Another: V14C
A: 2.81

Q: Lookup K10R
A: 1.8

Q: Another variant to look at: L22E
A: 2.95

Q: Also E1R , if possible.
A: 1.69

Q: Now consider K4I .
A: 2

Q: What about V13D ?
A: 3.81

Q: For E18S then?
A: 2.16

Q: Item: L16Q
A: 4.37
